# Assayed System: Endothelin receptor type B (Homo sapiens)
# Sequence (P24530 whole entry): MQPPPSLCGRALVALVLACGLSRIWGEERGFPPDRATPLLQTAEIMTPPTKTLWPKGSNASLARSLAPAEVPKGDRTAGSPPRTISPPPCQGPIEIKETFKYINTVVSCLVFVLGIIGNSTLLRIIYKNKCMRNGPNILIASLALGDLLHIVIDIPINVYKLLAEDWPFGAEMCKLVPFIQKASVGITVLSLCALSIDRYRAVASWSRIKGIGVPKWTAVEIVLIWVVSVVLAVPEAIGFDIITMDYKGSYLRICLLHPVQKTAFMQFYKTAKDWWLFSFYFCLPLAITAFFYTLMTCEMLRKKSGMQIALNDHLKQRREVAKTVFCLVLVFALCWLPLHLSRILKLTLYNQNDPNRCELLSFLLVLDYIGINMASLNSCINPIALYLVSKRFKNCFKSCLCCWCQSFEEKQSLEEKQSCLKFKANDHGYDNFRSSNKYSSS
# Method: Binding affinity in Chinese hamster ovary (CHO) cells stably transfected with human endothelin B (ETB) receptor
Endpoint: IC50

Compound	Assayed System	Test Result
C[C@H](NC(=O)[C@@H](NC(=O)CNC(=O)[C@H](Cc1c[nH]cn1)NC(=O)[C@H](Cc1c[nH]c2ccccc12)NC(=O)[C@H](CC(N)=O)NC(=O)CN)[C@@H](C)O)C(=O)N1CCC[C@H]1C(=O)N[C@@H](CC(=O)O)C(=O)N[C@@H](Cc1c[nH]c2ccccc12)C(=O)N[C@@H](Cc1ccccc1)C(=O)N[C@@H](Cc1ccccc1)C(=O)N[C@@H](CC(N)=O)C(=O)N[C@@H](Cc1ccc(O)cc1)C(=O)N[C@@H](Cc1ccc(O)cc1)C(=O)N[C@@H](Cc1c[nH]c2ccccc12)C(=O)O	Endothelin receptor type B (Homo sapiens)	> 2.5 µM

Next, consider the following compound.
Report IC50, nothing else, for this compound: C[C@@H]1NC(=O)[C@H]([C@@H](C)O)NC(=O)CNC(=O)[C@H](Cc2c[nH]cn2)NC(=O)[C@H](Cc2c[nH]c3ccccc23)NC(=O)[C@H](CC(N)=O)NC(=O)CNC(=O)C[C@@H](C(=O)N[C@@H](Cc2c[nH]c3ccccc23)C(=O)N[C@@H](Cc2ccccc2)C(=O)N[C@@H](Cc2ccccc2)C(=O)N[C@@H](CC(N)=O)C(=O)N[C@@H](Cc2ccc(O)cc2)C(=O)N[C@@H](Cc2ccc(O)cc2)C(=O)N[C@@H](Cc2c[nH]c3ccccc23)C(=O)O)NC(=O)[C@@H]2CCCN2C1=O (stereo in doubt; 2) 6.5 µM

* * *

Below: a set of entries, each annotated with reported IC50.
# Assayed System: Endothelin-1 receptor (Homo sapiens, UniProt P25101)
# Method: Binding affinity in LtK cells stably transfected with human endothelin A (ETA) receptor
Starred links: 1 amine or outer side, 2 acyl side, 3 side chain; linkers in the order of their positions; H or OH if unused. Non-standard residues stand in square brackets, D forms with d. Residues, ends and D or L forms follow the SMILES beside them. X1 = O=C([C@@H](N[*:1])C1c2ccccc2CCc2ccccc21)[*:2]
Entry rule: numbers only, all in nM.

Compound	Uom	IC50
CC(=O)N[C@@H](Cc1c[nH]c2ccccc12)C(=O)N[C@@H](Cc1ccccc1)C(=O)N[C@@H](Cc1ccccc1)C(=O)N[C@@H](CC(N)=O)C(=O)N[C@@H](Cc1ccc(O)cc1)C(=O)N[C@@H](Cc1ccc(O)cc1)C(=O)N[C@@H](Cc1c[nH]c2ccccc12)C(=O)O	nM	250

Next, consider the following compound.
Name the recorded IC50 of NC(=O)C[C@H](NC(=O)[C@H](Cc1ccccc1)NC(=O)[C@@H](N)C1c2ccccc2CCc2ccccc21)C(=O)N[C@@H](Cc1ccc(O)cc1)C(=O)N[C@@H](Cc1ccc(O)cc1)C(=O)N[C@@H](Cc1c[nH]c2ccccc12)C(=O)O (H-[X1]FNYYW-OH) , assay system Endothelin-1 receptor (Homo sapiens, UniProt P25101). 9500

* * *

# Assayed System: Endothelin-1 receptor (Homo sapiens)
# Sequence (P25101 whole entry): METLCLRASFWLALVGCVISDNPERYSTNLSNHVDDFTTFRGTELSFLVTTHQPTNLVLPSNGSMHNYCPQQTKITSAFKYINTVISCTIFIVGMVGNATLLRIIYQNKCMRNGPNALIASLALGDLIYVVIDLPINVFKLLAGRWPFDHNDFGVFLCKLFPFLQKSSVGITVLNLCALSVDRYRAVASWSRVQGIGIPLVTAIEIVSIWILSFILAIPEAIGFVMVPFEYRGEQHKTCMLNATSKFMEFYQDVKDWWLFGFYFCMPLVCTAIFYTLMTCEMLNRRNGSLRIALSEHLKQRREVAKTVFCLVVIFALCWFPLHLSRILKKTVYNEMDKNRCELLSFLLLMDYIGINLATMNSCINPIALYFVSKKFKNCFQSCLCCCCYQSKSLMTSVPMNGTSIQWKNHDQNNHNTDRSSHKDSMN
# Method: Binding affinity in LtK cells stably transfected with human endothelin A (ETA) receptor
Endpoint: IC50 (µM)
Entry rule: numbers only, all in µM.

Report IC50, nothing else, for this molecule: C[C@@H]1NC(=O)[C@H]([C@@H](C)O)NC(=O)CNC(=O)[C@H](Cc2c[nH]cn2)NC(=O)[C@H](Cc2c[nH]c3ccccc23)NC(=O)[C@H](CC(N)=O)NC(=O)CNC(=O)C[C@@H](C(=O)N[C@@H](Cc2c[nH]c3ccccc23)C(=O)N[C@@H](Cc2ccccc2)C(=O)N[C@@H](Cc2ccccc2)C(=O)N[C@@H](CC(N)=O)C(=O)N[C@@H](Cc2ccc(O)cc2)C(=O)N[C@@H](Cc2ccc(O)cc2)C(=O)N[C@@H](Cc2c[nH]c3ccccc23)C(=O)O)NC(=O)[C@@H]2CCCN2C1=O (stereo in doubt; 2) 7.8

* * *

# Assayed System: Endothelin-1 receptor (Homo sapiens)
# Method: Binding affinity in LtK cells stably transfected with human endothelin A (ETA) receptor
Starred links: 1 amine or outer side, 2 acyl side, 3 side chain; linkers in the order of their positions; H or OH if unused. Non-standard residues stand in square brackets, D forms with d. Residues, ends and D or L forms follow the SMILES beside them. X1 = O=C([C@@H](N[*:1])C1c2ccccc2CCc2ccccc21)[*:2]
Endpoint: IC50 (nM)
Entry rule: numbers only, all in nM.

Known results for molecules:
Molecule	IC50 [nM]
CC(=O)N[C@H](C(=O)N[C@@H](Cc1ccccc1)C(=O)N[C@@H](CC(N)=O)C(=O)N[C@@H](Cc1ccc(O)cc1)C(=O)N[C@@H](Cc1ccc(O)cc1)C(=O)N[C@@H](Cc1c[nH]c2ccccc12)C(=O)O)C1c2ccccc2CCc2ccccc21 (Ac-[X1]FNYYW-OH)	1900
NC(=O)C[C@H](NC(=O)[C@H](Cc1ccccc1)NC(=O)[C@H](Cc1ccccc1)NC(=O)[C@@H](N)Cc1c[nH]c2ccccc12)C(=O)N[C@@H](Cc1ccc(O)cc1)C(=O)N[C@@H](Cc1ccc(O)cc1)C(=O)N[C@@H](Cc1c[nH]c2ccccc12)C(=O)O (H-WFFNYYW-OH)	2400

Next, consider the following molecule.
Report IC50, nothing else, for this molecule: `CC(=O)N[C@H](Cc1c[nH]c2ccccc12)C(=O)N[C@@H](Cc1ccccc1)C(=O)N[C@@H](Cc1ccccc1)C(=O)N[C@@H](CC(N)=O)C(=O)N[C@@H](Cc1ccc(O)cc1)C(=O)N[C@@H](Cc1ccc(O)cc1)C(=O)N[C@@H](Cc1c[nH]c2ccccc12)C(=O)O` 8100

* * *

Below: a set of entries, each annotated with reported pIC50.
# Assayed System: Endothelin receptor type B (Homo sapiens)
# Sequence (P24530 whole entry): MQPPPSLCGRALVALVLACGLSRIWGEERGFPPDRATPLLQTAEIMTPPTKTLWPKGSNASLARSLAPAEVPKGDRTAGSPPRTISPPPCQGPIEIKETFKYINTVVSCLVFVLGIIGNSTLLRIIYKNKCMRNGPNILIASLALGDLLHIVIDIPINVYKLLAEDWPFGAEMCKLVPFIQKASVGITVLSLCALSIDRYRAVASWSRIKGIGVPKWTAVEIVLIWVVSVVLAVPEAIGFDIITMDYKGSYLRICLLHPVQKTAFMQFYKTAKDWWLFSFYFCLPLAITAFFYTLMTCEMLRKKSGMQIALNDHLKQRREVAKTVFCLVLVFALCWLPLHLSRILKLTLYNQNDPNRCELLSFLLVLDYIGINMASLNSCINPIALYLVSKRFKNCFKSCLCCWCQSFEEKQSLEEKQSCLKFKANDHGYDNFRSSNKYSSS
# Method: Binding affinity in Chinese hamster ovary (CHO) cells stably transfected with human endothelin B (ETB) receptor
Starred links: 1 amine or outer side, 2 acyl side, 3 side chain; linkers in the order of their positions; H or OH if unused. Non-standard residues stand in square brackets, D forms with d. Residues, ends and D or L forms follow the SMILES beside them. X1 = O=C([C@@H](N[*:1])C1c2ccccc2CCc2ccccc21)[*:2]
In plain terms, pIC50 is the concentration in mol/L turned into minus its base-10 logarithm.

Known results for compounds:
Compound	pIC50
CC(=O)N[C@H](Cc1c[nH]c2ccccc12)C(=O)N[C@@H](Cc1ccccc1)C(=O)N[C@@H](Cc1ccccc1)C(=O)N[C@@H](CC(N)=O)C(=O)N[C@@H](Cc1ccc(O)cc1)C(=O)N[C@@H](Cc1ccc(O)cc1)C(=O)N[C@@H](Cc1c[nH]c2ccccc12)C(=O)O	4.85
NC(=O)C[C@H](NC(=O)[C@H](Cc1ccccc1)NC(=O)[C@@H](N)C1c2ccccc2CCc2ccccc21)C(=O)N[C@@H](Cc1ccc(O)cc1)C(=O)N[C@@H](Cc1ccc(O)cc1)C(=O)N[C@@H](Cc1c[nH]c2ccccc12)C(=O)O (H-[X1]FNYYW-OH)	4.89
CC(=O)N[C@H](C(=O)N[C@@H](Cc1ccccc1)C(=O)N[C@@H](CC(N)=O)C(=O)N[C@@H](Cc1ccc(O)cc1)C(=O)N[C@@H](Cc1ccc(O)cc1)C(=O)N[C@@H](Cc1c[nH]c2ccccc12)C(=O)O)C1c2ccccc2CCc2ccccc21 (Ac-[X1]FNYYW-OH)	5.37
NC(=O)C[C@H](NC(=O)[C@H](Cc1ccccc1)NC(=O)[C@H](Cc1ccccc1)NC(=O)[C@@H](N)Cc1c[nH]c2ccccc12)C(=O)N[C@@H](Cc1ccc(O)cc1)C(=O)N[C@@H](Cc1ccc(O)cc1)C(=O)N[C@@H](Cc1c[nH]c2ccccc12)C(=O)O (H-WFFNYYW-OH)	4.82
CC(=O)N[C@@H](Cc1c[nH]c2ccccc12)C(=O)N[C@@H](Cc1ccccc1)C(=O)N[C@@H](Cc1ccccc1)C(=O)N[C@@H](CC(N)=O)C(=O)N[C@@H](Cc1ccc(O)cc1)C(=O)N[C@@H](Cc1ccc(O)cc1)C(=O)N[C@@H](Cc1c[nH]c2ccccc12)C(=O)O	5.12

Next, consider the following compound.
Report pIC50, nothing else, for this compound: C[C@@H]1NC(=O)[C@H]([C@@H](C)O)NC(=O)CNC(=O)[C@H](Cc2c[nH]cn2)NC(=O)[C@H](Cc2c[nH]c3ccccc23)NC(=O)[C@H](CC(N)=O)NC(=O)CNC(=O)C[C@@H](C(=O)N[C@@H](Cc2c[nH]c3ccccc23)C(=O)N[C@@H](Cc2ccccc2)C(=O)N[C@@H](Cc2ccccc2)C(=O)N[C@@H](CC(N)=O)C(=O)N[C@@H](Cc2ccc(O)cc2)C(=O)N[C@@H](Cc2ccc(O)cc2)C(=O)N[C@@H](Cc2c[nH]c3ccccc23)C(=O)O)NC(=O)[C@@H]2CCCN2C1=O (stereo in doubt; 1) 8.00
